- System: SRS-A-induced constriction of the guinea pig ileum
- Assay Comment: Guinea Pig Ileum, In Vitro (SRS-A antagonism)
- Format: cell-based
- Test Conditions: Cavia porcellus; SRS-A-induced constriction, 37° C., SRS-A at its EC50; read-out: In vitro Guinea Pig ileum IC50
Quantity Name: IC50 (nM)

Here is how some molecules turned out for IC50.
- Molecule: "CCCc1c(OCCCOc2ccc3c(c2)OC(CC(=O)O)CC3)ccc(C(C)=O)c1O (racemic)"
  IC50, nM: 100
- Molecule: "CCCc1c(OCCCOc2cc3c(cc2C(C)=O)OC(C(=O)O)CC3)ccc(C(C)=O)c1O (racemic)"
  IC50, nM: 200
- Molecule: "CCCc1c(OCCCCCOc2c(C)c(C)c3c(c2C)CC[C@](C)(C(=O)O)O3)ccc(C(C)=O)c1O"
  IC50, nM: 500
- Molecule: "CCCc1c(OCCCOc2ccc3c(c2CCC)OC(C(=O)O)CC3)ccc(C(C)=O)c1O (racemic)"
  IC50, nM: 100
- Molecule: "CC(=O)c1ccc(OCCCCCOc2cc3c(cc2C(C)=O)CCC(C(=O)O)O3)cc1O (racemic)"
  IC50, nM: 3000
- Molecule: "CCCc1c(OCCCCCOc2ccc3c(c2CCC)OC(C(=O)O)CC3)ccc(C(C)=O)c1O (racemic)"
  IC50, nM: 800

(I) CCCc1c(OCCCCCOc2ccc(C(C)=O)c(O)c2)ccc2c1OC(C(=O)O)CC2 (racemic)
(II) CCCc1c(OCCCOc2ccc3c(c2)CCC(CC(=O)O)O3)ccc(C(C)=O)c1O (racemic)
### Prompt Pick one, I or II : lowest reported IC50. Identify your pick by its label.
### Response II
(II: 400 nM, I: 6000 nM)

---

- Tested on: SRS-A-induced constriction of the guinea pig ileum
- Assay Comment: Guinea Pig Ileum, In Vitro (SRS-A antagonism)
- Type: cell-based
- Test Conditions: Cavia porcellus; SRS-A-induced constriction, 37° C., SRS-A at its EC50; read-out: In vitro Guinea Pig ileum IC50
pIC50: −log10 of the molar value.
Quantity Name: pIC50

Here is how some compounds turned out for pIC50.
- Compound: "CCCc1c(OCCCCCCOc2cc3c(cc2C(C)=O)CCC(C(=O)O)O3)ccc(C(C)=O)c1O (racemic)"
  Target System: "SRS-A-induced constriction of the guinea pig ileum"
  Readout Value: 5.52
- Compound: "CCCc1c(OCCCOc2c(C(C)=O)cc3c(c2CCC)OC(C)(CCC(=O)O)CC3)ccc(C(C)=O)c1O (racemic)"
  Target System: "SRS-A-induced constriction of the guinea pig ileum"
  Readout Value: 7.10
- Compound: "CCCc1c(OCCCOc2cc3c(cc2C(C)=O)OC(C)(C(=O)O)CC3)ccc(C(C)=O)c1O (racemic)"
  Target System: "SRS-A-induced constriction of the guinea pig ileum"
  Readout Value: 6.30
- Compound: "CCCc1c(OCCCOc2c(C)c(C)c3c(c2C)CCC(C)(CC(=O)O)O3)ccc(C(C)=O)c1O (racemic)"
  Target System: "SRS-A-induced constriction of the guinea pig ileum"
  Readout Value: 6.70
- Compound: "CCCc1c(OCCCOc2ccc3c(c2)CCC(C)(CCC(=O)O)O3)ccc(C(C)=O)c1O (racemic)"
  Target System: "SRS-A-induced constriction of the guinea pig ileum"
  Readout Value: 6.30
- Compound: "CCCc1c(OCCCCCOc2c(C(C)=O)cc3c(c2CCC)OC(C(=O)O)CC3)ccc(C(C)=O)c1O (racemic)"
  Target System: "SRS-A-induced constriction of the guinea pig ileum"
  Readout Value: 6.30

(I) CCCc1c(OCCCOc2ccc3c(c2)CCC(C(=O)O)O3)ccc(C(C)=O)c1O (racemic)
(II) CCCc1c(OCCCOc2ccc3c(c2)OC(C)(CCC(=O)O)CC3)ccc(C(C)=O)c1O (racemic)
### Prompt Choose between I and II : whose measured pIC50 value is numerically larger? Identify your pick by its label.
### Response II

---

- Tested on: SRS-A-induced constriction of the guinea pig ileum
- Assay Comment: Guinea Pig Ileum, In Vitro (SRS-A antagonism)
- Assay type: cell-based
- Test Conditions: Cavia porcellus; SRS-A-induced constriction, 37° C., SRS-A at its EC50; read-out: In vitro Guinea Pig ileum IC50
Quantity Name: IC50 (nM)

- Compound: "CCCc1c(OCCCCCOc2cc3c(cc2C(C)=O)CC[C@H](C(=O)O)O3)ccc(C(C)=O)c1O"
  Quantity Name: "IC50"
  Readout Value: 100

(P) CCCc1c(OCCCOc2c(C)c(C)c3c(c2C)CCC(C(=O)O)O3)ccc(C(C)=O)c1O (racemic)
(Q) CCCc1c(OCCCCCOc2ccc3c(c2)OC(C(=O)O)CC3)ccc(C(C)=O)c1O (racemic)
(R) CCCc1c(OCCCCCOc2cc3c(cc2C(C)=O)CC[C@@H](C(=O)O)O3)ccc(C(C)=O)c1O
### Prompt Sort these compounds on IC50 so the largest reading comes first. Labels, requested order.
### Response Q, P, R
(Q: 2000 nM, P: 100 nM, R: 60 nM)

---

- Tested on: leukotriene E4 bronchoconstriction
- Assay Comment: Guinea Pig Bronchoconstriction, In Vivo (Aerosol), leukotriene E4 challenge
- Set-up: species or system guinea pig (Hartley strain)
- Test Conditions: five minute exposure, drug concentration of aerosol solution (w/v), leukotriene E4 i.v.
Quantity Name: Guinea Pig Bronchoconstriction In vivo aerosol - IC50 (%)

- Molecule: "CCCc1c(OCCCOc2c(C)c(C)c3c(c2C)CCC(C(=O)O)O3)ccc(C(C)=O)c1O (racemic)"
  Value Units: "%"
  Readout Value: 1.0
- Molecule: "CCCc1c(OCCCOc2c(C(C)=O)cc3c(c2CCC)OC(C)(CCC(=O)O)CC3)ccc(C(C)=O)c1O (racemic)"
  Value Units: "%"
  Readout Value: 0.12
- Molecule: "CCCc1c(OCCCOc2ccc3c(c2)CCC(C(=O)O)O3)ccc(C(C)=O)c1O (racemic)"
  Value Units: "%"
  Readout Value: 0.50
- Molecule: "CCCc1c(OCCCOc2ccc3c(c2CCC)OC(C)(CCC(=O)O)CC3)ccc(C(C)=O)c1O (racemic)"
  Value Units: "%"
  Readout Value: 0.71
- Molecule: "CCCc1c(OCCCOc2ccc3c(c2C(C)=O)OC(C(=O)O)CC3)ccc(C(C)=O)c1O (racemic)"
  Value Units: "%"
  Readout Value: 0.59
- Molecule: "CCCc1c(OCCCOc2ccc3c(c2)OC(C(=O)O)CC3)ccc(C(C)=O)c1O (racemic)"
  Value Units: "%"
  Readout Value: 0.14

(a) CCCc1c(OCCCOc2c(C(C)=O)cc3c(c2CCC)OC(C(=O)O)CC3)ccc(C(C)=O)c1O (racemic)
(b) CCCc1c(OCCCOc2c(C)c(C)c3c(c2C)CCC(C)(C(=O)O)O3)ccc(C(C)=O)c1O (racemic)
### Prompt Choose between a and b : whose measured Guinea Pig Bronchoconstriction In vivo aerosol - IC50 value is numerically larger? Identify your pick by its label.
### Response b
(b: 1.0%, a: 0.38%)

---

- System: SRS-A-induced constriction of the guinea pig ileum
- Assay Comment: Guinea Pig Ileum, In Vitro (SRS-A antagonism)
- Type: cell-based
- Test Conditions: Cavia porcellus; SRS-A-induced constriction, 37° C., SRS-A at its EC50; read-out: In vitro Guinea Pig ileum IC50
pIC50: −log10 of the molar value.
Quantity Name: pIC50

- Compound: "CCCc1c2c(cc(C(C)=O)c1OCCCCCOc1ccc(C(C)=O)c(O)c1)CCC(C(=O)O)O2 (racemic)"
  Readout Value: 6.00

(A) CCCc1c(OCCCOc2cc3c(cc2C(C)=O)CCC(C(=O)O)O3)ccc(C(C)=O)c1O (racemic)
(B) CCCc1c(OCCCOc2ccc3c(c2C(C)=O)OC(C(=O)O)CC3)ccc(C(C)=O)c1O (racemic)
(C) CCCc1c(OCCCCCCCOc2cc3c(cc2C(C)=O)CCC(C(=O)O)O3)ccc(C(C)=O)c1O (racemic)
(D) CCCc1c(OCCCOc2ccc3c(c2)OC(C(=O)O)CC3)ccc(C(C)=O)c1O (racemic)
(E) CCCc1c(OCCCCOc2cc3c(cc2C(C)=O)CCC(C(=O)O)O3)ccc(C(C)=O)c1O (racemic)
### Prompt Arrange these 5 compounds in increasing order of pIC50. Labels, requested order.
### Response E, C, B, A, D
(E: 5.70, C: 6.00, B: 6.52, A: 7.00, D: 7.22)

---

- Tested on: SRS-A-induced constriction of the guinea pig ileum
- Assay Comment: Guinea Pig Ileum, In Vitro (SRS-A antagonism)
- Type: cell-based
- Test Conditions: Cavia porcellus; SRS-A-induced constriction, 37° C., SRS-A at its EC50; read-out: In vitro Guinea Pig ileum IC50
Quantity Name: IC50 (nM)

- Compound: "CCCc1c(OCCCOc2c(C)c(C)c3c(c2C)CCC(C)(C(=O)O)O3)ccc(C(C)=O)c1O (racemic)"
  Readout Value: 100

(a) CCCc1c(OCCCOc2ccc3c(c2)OCC(C(=O)O)C3)ccc(C(C)=O)c1O (racemic)
(b) CCCc1c(OCCCOc2ccc3c(c2CCC)OC(C)(CCC(=O)O)CC3)ccc(C(C)=O)c1O (racemic)
(c) CC(=O)c1ccc(OCCCCCOc2ccc3c(c2)OC(C(=O)O)CC3)cc1O (racemic)
### Prompt Arrange these 3 compounds in increasing order of IC50. Labels, requested order.
### Response a, b, c

Just for reference, patent US4788214A is where these values come from.
